Origin of values: patent US20240166598A1

# system name: SARS CoV-2 PLpro (Severe acute respiratory syndrome coronavirus 2 (2019-nCoV) (SARS-CoV-2))
# assay name: biochemical
# Type: binding
# test context: KD4
pKd: −log10 of the molar value.

{"compound": "Cc1ccc(NC2CNC2)cc1C(=O)N[C@H](C)c1cccc2ccccc12 [ZN-2-184]", "pKd": 6.07}

----------
# system name: SARS CoV-2 PLpro (Severe acute respiratory syndrome coronavirus 2 (2019-nCoV) (SARS-CoV-2))
# assay name: biochemical
# Type: binding
# test context: KD3

{"chem smiles": "Cc1ccc(NC2CNC2)cc1C(=O)N[C@H](C)c1cccc2ccccc12", "Kd (µM)": 1.06}

----------
Readings of pKd for the listed compounds
# system name: SARS CoV-2 PLpro (Severe acute respiratory syndrome coronavirus 2 (2019-nCoV) (SARS-CoV-2), UniProt P0DTD1)
# assay name: biochemical
# Format: binding
# test context: Table 7; read-out: SPR binding assay KD
pKd: −log10 of the molar value.
value type: pKd

{"chem smiles": "Cc1ccc(N)cc1C(=O)N[C@H](C)c1cccc2cccnc12", "value type": "pKd", "relation sign": "<", "result value": 3.00}
{"chem smiles": "Cc1ccc(NC2CNC2)cc1C(=O)N[C@H](C)c1cccc2ccccc12", "value type": "pKd", "relation sign": "=", "result value": 6.09}

----------
# assay name: in vitro
# test context: human, microsomes
half-life values by entry
value type: half-life

{"molecule": "Cc1ccc(NC2CNC2)cc1C(=O)N[C@H](C)c1cccc(-c2ccc(CN3CCCC3)s2)c1 [XR8-24]", "value type": "half-life", "result value": "2.41 h"}
{"molecule": "Cc1ccc(NC2CNC2)cc1C(=O)N[C@H](C)c1cccc(-c2ccc(CN3CC[C@H](O)C3)s2)c1 [XR8-57]", "value type": "half-life", "result value": "85.4 h"}
{"molecule": "Cc1ccc(NC2CNC2)cc1C(=O)N[C@H](C)c1cccc(-c2cccs2)c1 (single isomer, unassigned) [ZN-3-80]", "value type": "half-life", "result value": "4.1 h"}
{"molecule": "Cc1ccc(NC2CNC2)cc1C(=O)N[C@H](C)c1cccc(-c2ccc(CNC3CCCC3)s2)c1 [XR8-23]", "value type": "half-life", "result value": "3.92 h"}

----------
# system name: SARS CoV-2 PLpro (Severe acute respiratory syndrome coronavirus 2 (2019-nCoV) (SARS-CoV-2), UniProt P0DTD1)
# assay name: biochemical
# Assay type: binding
# test context: read-out: SPR binding assays KD
This section presents compounds with their documented log10 Kd values.
value type: log10 Kd (log10 of the value in µM)

{"compound": "Cc1ccc(NC2CNC2)cc1C(=O)N[C@H](C)c1cccc2ccccc12", "log10 Kd": 0.01}
{"compound": "Cc1ccc(NC(=O)C2CCN(C(=O)OC(C)(C)C)CC2)cc1C(=O)N[C@H](C)c1cccc2ccccc12", "log10 Kd": 1.49}
{"compound": "Cc1ccc(N)cc1C(=O)NC(CO)c1cccc2ccccc12 (centres unmarked)", "log10 Kd": 1.59}
{"compound": "Cc1ccc(NC2CCN(C(=O)OC(C)(C)C)CC2)cc1C(=O)N[C@H](C)c1cccc2ccccc12", "log10 Kd": 0.67}
{"compound": "Cc1ccc(NC2CN(C(=O)OC(C)(C)C)C2)cc1C(=O)N[C@H](C)c1cccc2ccccc12", "log10 Kd": 1.20}

----------
# system name: SARS CoV-2 PLpro (Severe acute respiratory syndrome coronavirus 2 (2019-nCoV) (SARS-CoV-2))
# assay name: biochemical
# test context: Table 8; read-out: FRET Enzymatic assay IC50
value type: IC50 (nM)

{"compound": "Cc1ccc(OC2CNC2)cc1C(=O)N[C@H](C)c1cccc(-c2ccc(CN3CCCC3)o2)c1", "uom": "nM", "result value": 4580}
{"compound": "Cc1ccc(OC2CNC2)cc1C(=O)N[C@H](C)c1cccc(-c2ccc(CN[C@H]3CC[C@@H](O)C3)o2)c1", "uom": "nM", "result value": 3020}
{"compound": "Cc1ccc(OC2CNC2)cc1C(=O)N[C@H](C)c1cccc(-c2ccc(CN[C@H]3CC[C@@H](C(=O)OC[C@H]4O[C@@H](n5ccc(NO)nc5=O)[C@H](O)[C@@H]4O)C3)s2)c1", "uom": "nM", "result value": 750}
{"compound": "Cc1ccc(OC2CNC2)cc1C(=O)N[C@H](C)c1cccc(-c2ccc(CN[C@H]3CC[C@@H](C(=O)NCCOCCOCCOCCOCCNc4cccc5c4C(=O)N(C4CCC(=O)NC4=O)C5=O)C3)s2)c1 (stereo partly shown)", "uom": "nM", "result value": 1670}

----------
# system name: SARS CoV-2 PLpro (Severe acute respiratory syndrome coronavirus 2 (2019-nCoV) (SARS-CoV-2), UniProt P0DTD1)
# assay name: biochemical
# Format: biochemical
# test context: Table 7; read-out: Enzymatic assay IC50
pIC50: −log10 of the molar value.
Reported pIC50 values are given for each entry in this list.

{"compound": "CN(C)CC[C@@H](NC(=O)c1cccc(N(C)C2CNC2)c1)c1cccc2ccccc12", "relation sign": "<", "pIC50": 4.00}
{"compound": "Cc1ccc(N(C)C2CNC2)cc1C(=O)N[C@H](C)c1c(OC2CNC2)ccc2ccccc12", "relation sign": "<", "pIC50": 4.00}
{"compound": "Cc1ccc(NC2CNC2)cc1C(=O)N[C@H](C)c1cccc(-c2ccc(CN[C@H]3CC[C@@H](OC(=O)/C=C/c4cccnc4)C3)s2)c1", "relation sign": "=", "pIC50": 6.41}
{"compound": "Cc1ccc([N+](=O)[O-])cc1C(=O)NC(C)c1c[nH]c2ccccc12 (centres unmarked)", "relation sign": "<", "pIC50": 4.00}
{"compound": "Cc1ccc(NC2CNC2)cc1C(=O)N[C@H](C)c1cccc(-c2ccc(CNC(=O)C(F)(F)C(F)(F)F)s2)c1", "relation sign": "=", "pIC50": 6.35}
{"compound": "CCOC(=O)[C@@H]1CC[C@H](NCc2cnc(-c3cccc([C@@H](C)NC(=O)c4cc(NC5CNC5)ccc4C)c3)s2)C1", "relation sign": "=", "pIC50": 6.30}
{"compound": "Cc1ccc(NC2CNC2)cc1C(=O)N[C@H](C)c1cccc(-c2ncc(CN3CCCC3)s2)c1", "relation sign": "=", "pIC50": 5.50}

----------
# system name: SARS CoV-2 PLpro (Severe acute respiratory syndrome coronavirus 2 (2019-nCoV) (SARS-CoV-2), UniProt P0DTD1)
# assay name: cell-based
# test context: read-out: FlipGFP-PLpro assay EC50
pEC50: −log10 of the molar value.
The molecules listed here are annotated with their pEC50.
value type: pEC50

{"molecule": "Cc1ccc(OC2CNC2)cc1C(=O)N[C@H](C)c1cccc(-c2ccc(CN[C@H]3CC[C@@H](C(=O)NCCOCCOCCOCCOCCNc4cccc5c4C(=O)N(C4CCC(=O)NC4=O)C5=O)C3)s2)c1 (stereo partly shown)", "value type": "pEC50", "result value": "< 4.70"}
{"molecule": "Cc1ccc(OC2CNC2)cc1C(=O)N[C@H](C)c1cccc(-c2ccc(CN[C@H]3CC[C@@H](O)C3)o2)c1", "value type": "pEC50", "result value": "< 4.22"}
{"molecule": "Cc1ccc(OC2CNC2)cc1C(=O)N[C@H](C)c1cccc(-c2ccc(CN3CCCC3)o2)c1", "value type": "pEC50", "result value": "< 4.22"}
{"molecule": "Cc1ccc(OC2CNC2)cc1C(=O)N[C@H](C)c1cccc(-c2ccc(CN[C@H]3CC[C@@H](C(=O)OC[C@H]4O[C@@H](n5ccc(NO)nc5=O)[C@H](O)[C@@H]4O)C3)s2)c1", "value type": "pEC50", "result value": "< 4.70"}

----------
# test context: human
In vitro CIint: recorded values
value type: In vitro CIint (μL/min/mg protein)

{"compound": "Cc1ccc(NC2CNC2)cc1C(=O)N[C@H](C)c1cccc(-c2ccc(CN3CC[C@H](O)C3)s2)c1", "value type": "In vitro CIint", "result value": 0.27}
{"compound": "Cc1ccc(NC2CNC2)cc1C(=O)N[C@H](C)c1cccc(-c2ccc(CNC3CCCC3)s2)c1", "value type": "In vitro CIint", "result value": 5.89}
{"compound": "Cc1ccc(NC2CNC2)cc1C(=O)N[C@H](C)c1cccc(-c2cccs2)c1 (single isomer, unassigned)", "value type": "In vitro CIint", "result value": 5.64}
{"compound": "Cc1ccc(NC2CNC2)cc1C(=O)N[C@H](C)c1cccc(-c2ccc(CN3CCCC3)s2)c1", "value type": "In vitro CIint", "result value": 9.60}

----------
# system name: UniProtKB P0DTD1
# assay name: biochemical
# Type: binding
# test context: KD2

{"chem smiles": "Cc1ccc(NC2CNC2)cc1C(=O)N[C@H](C)c1cccc2ccccc12", "Kd [nM]": 1170}
